Tested on: XIP peptide (Xip251-270)
Test: compounds binding XIP fragment 251-270 – biochemical, small-molecule microarray, fluorescence 635/667 nm, 0.5 µg/mL protein, primary screen (AID 1183)
Conditions: fluorescence 635 nm, higher = more signal
quantity-kind: composite z-score
// keep it numeric: no unit symbol after the value

Data point: CC1CC/C=C\[C@H]2OC34C=CCN(C(C)(C)C)C(=O)[C@H]3N(CCCO)C(=O)[C@@H]4C2C(=O)O1 (stereo partly drawn) ; composite z-score = 0.774

Data point: [N-]=[N+]=Nc1ccccc1[C@@H]1OC(c2ccc(OCCCO)cc2)=N[C@]1(Cc1ccccc1)C(=O)NCCN1CCOCC1 ; composite z-score = 0.441

Data point: CN(C)C(=O)[C@]1(Cc2ccccc2)N=C(c2ccc(OCCCO)cc2)O[C@@H]1c1ccccc1CN=[N+]=[N-] ; composite z-score = 0.764
